- Tested System: Solute carrier family 2, facilitated glucose transporter member 1 (Homo sapiens)
- Experiment Description: ST_JUDE_LEISH: Cytotoxicity at 2uM final concentration against transgenic Leishmania Mexicana promastigotes LmGLUT1 that are glucose transport deficient and complemented with the human glucose transporter GLUT1. Activity is measured by DNA content using SYBR green in vitro
- Assay type: functional
Measured Endpoint: inhibition (%)
Field format: number, assumed %, no unit text.

Some entries whose results are on file:
| Molecule | Tested System | Measured Endpoint | Display Unit | Reading |
| --- | --- | --- | --- | --- |
| CN(Cc1ccc(C#N)cc1)C1CCN(c2cc(NC(=O)c3ccc(F)cc3)ccn2)CC1 | Solute carrier family 2, facilitated glucose transporter member 1 (Homo sapiens) | inhibition | % | 1.28 |
| Cc1cc(N[C@@H](Cc2ccccc2)C(=O)NC2CCCC2)nc(NCC2CCCCC2)n1 | Solute carrier family 2, facilitated glucose transporter member 1 (Homo sapiens) | inhibition | % | 3.03 |
| CC(C)C(C(=O)n1ncc2c3c(N)nc(N)nc3ccc21)C(C)C | Solute carrier family 2, facilitated glucose transporter member 1 (Homo sapiens) | inhibition | % | 87.4 |
| Cc1cccc2nc(-c3ccc(-c4ccc(C(=O)NCCN5CCCC5)cc4)cc3)[nH]c12 | Solute carrier family 2, facilitated glucose transporter member 1 (Homo sapiens) | inhibition | % | 0.86 |
| N#Cc1ccc(CNCCCCCCCNCc2ccc(-c3ccccc3)cc2)cc1 | Solute carrier family 2, facilitated glucose transporter member 1 (Homo sapiens) | inhibition | % | 4.19 |

*Q* Consider the molecule shown here: c1ccc(Oc2cccc(Nc3ccnc4ccccc34)c2)cc1 What is its recorded inhibition?
*A* 8.44

*Q* Name the reported inhibition value associated with the molecule COc1cc2nc(N3CCN(C(=O)c4c(Cl)nsc4-c4ccccc4Cl)CC3)nc(N)c2cc1OC
*A* 10.5

*Q* Please look up its inhibition: CC1CN(c2cnn(Cc3ccc(NC(=O)Nc4ccc(F)cc4[N+](=O)[O-])cc3)c(=O)c2Cl)CC(C)N1 (centres undefined)
*A* 2.34

*Q* Look at this molecule and give its reported inhibition. O=C(NCc1cccc(F)c1)Nc1cccc(-c2ccc(-c3nc4cc(C(F)(F)F)ccc4[nH]3)cc2)c1
*A* 0.26

*Q* Request the reported inhibition associated with COc1cc(C2CCN(CCCCNC(=O)c3ccc(NC(=O)c4ccc(Cl)c(Cl)c4)cc3)CC2)ccc1OC(C)C
*A* 1.53

*Q* Reported inhibition, molecule CC(C)c1cc2c(ccc3nc(N)nc(N)c32)o1 : ____
*A* 3.76

*Q* Returns the measured inhibition for the input molecule. Input: CCNc1cc(C(=O)N[C@@H](Cc2ccccc2)[C@H](O)CNC2(CCC(C)C)CC2)cc(N2CCCCS2(=O)=O)c1
*A* -1.85

*Q* Consider the molecule Nc1cccc(CNCc2cccc(-c3cccc(-c4nc5cc(C(F)(F)F)ccc5[nH]4)c3)c2)c1 and give its measured inhibition.
*A* 1.23

*Q* Name the recorded inhibition for COc1ccc2nc(Nc3nc(-c4ccccn4)cs3)sc2c1 .
*A* 11.7

*Q* Requested field: inhibition. Item: Cc1ccc(Nc2ccnc(Nc3ccc(C)c(F)c3)n2)cc1O
*A* 9.14

*Q* Fill blank: measured inhibition of the molecule CCCN(CCC)C(=O)c1cc(C(=O)N[C@@H](Cc2ccccc2)[C@H](O)CNC2CC2)cc(N2CCCCS2(=O)=O)c1 is ____.
*A* 2.88

*Q* Item under review: COc1cc(C(=O)Nc2cccc(-c3nc4ccccc4[nH]3)c2)cc(OC)c1OC . Reported inhibition?
*A* 4.34

*Q* Entry under review: O=C(Nc1nc2cc(S(=O)(=O)NCCc3cccc(F)c3)ccc2n1CCCn1ccnc1)c1ccc(Cl)cc1 . Reported inhibition?
*A* 1.22

*Q* Quick one: inhibition of COc1cc(-c2[nH]c(-c3ccc(OCCN(C)C)cc3)cc2-c2ccncc2)ccc1Cl ?
*A* 1.46
